The following molecules are listed with their measured TGI values.
# Test system: NCI-H522 lung
# assay-explanation: NCI tumour cell line growth inhibition, 48 h

{"molecule": "O=c1[nH]c(=O)n(CCOc2ccccc2)cc1Nc1ccccc1", "TGI": "> 100 µM"}
{"molecule": "CCOC(=O)C1(Cc2ccccc2)C=CN(C(=O)c2ccccc2)C=C1", "TGI": "76 µM"}
{"molecule": "O=C1CCC2(c3ccccc3)Nc3ccncc3N12 (stereo unspecified)", "TGI": "> 10 µM"}
{"molecule": "O=C(N/N=C/C=C/c1ccccc1)[C@H](O)[C@@H](O)C(=O)N/N=C/C=C/c1ccccc1", "TGI": "> 100 µM"}
{"molecule": "Cc1ccc(C(=O)N(CCCN)C(c2oc3cc(Cl)ccc3c(=O)c2Cc2ccccc2)C(C)C)cc1 (stereo unspecified)", "TGI": "< 0.01 µM"}
{"molecule": "COc1cc2ncnc(Nc3cccc(Cl)c3)c2cc1OC", "TGI": "18.4 µM"}
{"molecule": "COc1cc(/C=C2/SC(c3ccccc3)N(c3ccccc3Cl)C2=O)cc(OC)c1OC (stereo unspecified)", "TGI": "32.3 µM"}
{"molecule": "O=C(CCc1nnc2sc(-c3ccc(Cl)cc3Cl)nn12)c1nc2ccccc2[nH]1", "TGI": "2.18 µM"}
{"molecule": "CO/C(N)=C(\\C#N)N=Cc1ccco1", "TGI": "> 100 µM"}
{"molecule": "OC1(c2ccccc2)C2CCN(CC2)C1CN1CCOCC1 (stereo unspecified)", "TGI": "> 100 µM"}
{"molecule": "O=c1[nH]nc(-c2ccccc2)n1/N=C/c1ccc([N+](=O)[O-])cc1", "TGI": "> 100 µM"}

###

The following molecules are listed with their measured TGI values.
# Test system: SF-268 CNS
# assay-explanation: NCI tumour cell line growth inhibition, 48 h

{"molecule": "CCC[CH2][Sn]1([CH2]CCC)[O]C(=O)CN=Cc2c(ccc3ccccc23)[O]1", "TGI": "1.18 µM"}
{"molecule": "COc1ccc2c(c1)C(=O)c1c-2n(CCCn2ccnc2)c(=O)c2cc([N+](=O)[O-])ccc12", "TGI": "> 75.5 µM"}
{"molecule": "CC(SC(=S)N1CCOCC1)c1cc2oc(=O)n(C)c2cc1Cl (centres undefined)", "TGI": "> 100 µM"}
{"molecule": "CCCC(=O)OCC1OC(n2cnc3c(=S)nc[nH]c32)C(OC(=O)CCC)C1OC(=O)CCC (centres undefined)", "TGI": "> 100 µM"}
{"molecule": "O=C(CCc1cc(-c2ccccc2)nc(=S)[nH]1)N(Cc1ccccc1)Cc1ccccc1", "TGI": "> 100 µM"}
{"molecule": "O=C(CC1C(=O)NN(c2ccc(Br)cc2)C1=O)c1cc(O)ccc1O (centres undefined)", "TGI": "> 50 µM"}
{"molecule": "CC(=O)c1sc2c(c1OC(=O)c1ccco1)c(=O)n(-c1ccccc1)c(=S)n2-c1ccccc1", "TGI": "87.2 µM"}
{"molecule": "O=C1c2ccccc2C(=O)N1CCc1ncc[nH]1", "TGI": "> 100 µM"}
{"molecule": "CC(=O)Oc1cc(Cl)c(C)c2c1[C@H]1CC[C@]3(C)[C@@H](OC(C)=O)CC[C@H]3[C@@H]1CC2", "TGI": "> 100 µM"}
